TESTED ON: TRAF2 and NCK-interacting protein kinase (Homo sapiens) (UniProt Q9UKE5)
Sequence (Q9UKE5 whole entry, looked up): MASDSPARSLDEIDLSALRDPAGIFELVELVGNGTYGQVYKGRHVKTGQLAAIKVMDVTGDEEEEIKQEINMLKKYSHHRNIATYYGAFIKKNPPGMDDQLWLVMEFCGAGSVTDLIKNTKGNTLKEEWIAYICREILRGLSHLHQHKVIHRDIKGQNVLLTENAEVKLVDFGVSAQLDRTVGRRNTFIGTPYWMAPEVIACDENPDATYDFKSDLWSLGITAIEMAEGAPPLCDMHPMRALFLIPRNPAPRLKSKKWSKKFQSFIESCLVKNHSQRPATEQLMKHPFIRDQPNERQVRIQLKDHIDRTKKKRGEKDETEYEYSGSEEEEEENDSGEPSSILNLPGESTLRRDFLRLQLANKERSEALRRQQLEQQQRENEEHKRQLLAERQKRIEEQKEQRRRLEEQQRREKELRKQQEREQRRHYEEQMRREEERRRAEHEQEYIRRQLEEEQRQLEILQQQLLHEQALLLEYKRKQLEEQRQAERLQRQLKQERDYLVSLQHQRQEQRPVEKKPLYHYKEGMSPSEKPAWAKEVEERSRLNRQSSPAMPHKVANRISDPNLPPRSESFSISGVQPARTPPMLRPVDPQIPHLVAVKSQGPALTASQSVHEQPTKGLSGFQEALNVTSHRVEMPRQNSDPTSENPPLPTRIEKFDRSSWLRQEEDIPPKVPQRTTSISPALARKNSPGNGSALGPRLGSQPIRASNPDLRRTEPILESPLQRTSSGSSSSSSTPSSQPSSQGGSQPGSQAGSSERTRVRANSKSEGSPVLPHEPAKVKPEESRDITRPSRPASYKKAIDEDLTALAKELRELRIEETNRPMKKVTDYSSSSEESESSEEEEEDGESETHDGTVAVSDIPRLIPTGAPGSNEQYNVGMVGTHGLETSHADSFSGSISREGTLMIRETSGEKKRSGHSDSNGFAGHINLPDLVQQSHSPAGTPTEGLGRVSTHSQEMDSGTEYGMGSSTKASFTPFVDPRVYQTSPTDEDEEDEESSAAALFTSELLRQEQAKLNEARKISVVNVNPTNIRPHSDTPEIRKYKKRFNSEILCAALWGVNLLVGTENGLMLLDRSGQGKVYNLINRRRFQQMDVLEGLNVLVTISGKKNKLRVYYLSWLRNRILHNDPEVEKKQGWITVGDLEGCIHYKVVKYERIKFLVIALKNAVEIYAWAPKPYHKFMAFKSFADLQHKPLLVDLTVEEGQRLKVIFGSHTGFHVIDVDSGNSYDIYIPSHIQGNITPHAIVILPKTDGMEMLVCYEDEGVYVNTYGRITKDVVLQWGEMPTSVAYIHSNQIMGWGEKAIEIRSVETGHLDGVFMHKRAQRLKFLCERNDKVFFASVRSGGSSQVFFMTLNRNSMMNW
Hi! Just check whether ΔTm is below 4 °C. Below gives 1, equal or above gives -1.

COc1ccc(S(=O)(=O)N(CCO)c2ccccc2CN(C)C/C=C/c2ccc(Cl)cc2)cc1; 1
CC(C)N(CCO)c1nc(Nc2cccc(Cl)c2)c2ncn(C(C)C)c2n1; 1
COc1ccc2c(c1)/C(=C/c1cnc[nH]1)C(=O)N2; -1
N#C/C(=C1/Nc2ccccc2S1)c1ccnc(NCCc2cccnc2)n1; 1

Pending compound:
Lookup: # check: ΔTm < 4 °C for COc1cc2ncnc(Nc3cccc(O)c3)c2cc1OC
Found: 1
